Tested on: G3BP1 NFT2
Format: binding, human
Conditions: library DMS-CoV; bait G3BP1 NFT2; prey N; peptide RNAPRITFGGPSDSTG; listed as aa = residue placed at this position; column sums to 1
propertyName: DMS PSSM value, S (position 14)
Respond using a number only.

In [3]: df
Out[3]:
                              chainsequence  testedsystem                     propertyname  val
0  RNAPRITFGGPSDSTG S14R (RNAPRITFGGPSDRTG)    G3BP1 NFT2  DMS PSSM value, S (position 14)    0

Entry under test: RNAPRITFGGPSDSTG S14M (RNAPRITFGGPSDMTG) . Its DMS PSSM value, S (position 14) was 0.3095

Entry under test: RNAPRITFGGPSDSTG S14H (RNAPRITFGGPSDHTG) . Its DMS PSSM value, S (position 14) was 0

Entry under test: RNAPRITFGGPSDSTG S14T (RNAPRITFGGPSDTTG) . Its DMS PSSM value, S (position 14) was 0

Entry under test: RNAPRITFGGPSDSTG S14L (RNAPRITFGGPSDLTG) . Its DMS PSSM value, S (position 14) was 0

Entry under test: RNAPRITFGGPSDSTG . Its DMS PSSM value, S (position 14) was 0

* * *

Test system: PABPC1 PABC
Assay type: binding, human
Conditions: DMS-BM library, bait PABPC1 PABC, prey ATXN2, peptide TLNPNAKEFNPRSFSQ; F = wild type, row aa = residue at this position
propertyName: DMS-derived PSSM value, position F9
Respond using a number only.

# count of solved cases: 4
                             chainsequence      val
0  TLNPNAKEFNPRSFSQ F9S (TLNPNAKESNPRSFSQ)        0
1  TLNPNAKEFNPRSFSQ F9Y (TLNPNAKEYNPRSFSQ)  0.02013
2  TLNPNAKEFNPRSFSQ F9T (TLNPNAKETNPRSFSQ)  0.05894
3  TLNPNAKEFNPRSFSQ F9N (TLNPNAKENNPRSFSQ)        0

Now examine the next entry.
Entry under test: TLNPNAKEFNPRSFSQ F9M (TLNPNAKEMNPRSFSQ) . Its DMS-derived PSSM value, position F9 was 0

* * *

The reader will find reported DMS-derived PSSM value, position N5 values listed item by item below.
Test system: PABPC1 PABC
Type: binding, human
Settings: DMS-BM library, bait PABPC1 PABC, prey ATXN2, peptide KSTLNPNAKEFNPRSF; N = wild type, row aa = residue at this position
Respond using a number only.

                             chainsequence  testedsystem     val
0  KSTLNPNAKEFNPRSF N5K (KSTLKPNAKEFNPRSF)   PABPC1 PABC       0
1  KSTLNPNAKEFNPRSF N5A (KSTLAPNAKEFNPRSF)   PABPC1 PABC       0
2  KSTLNPNAKEFNPRSF N5T (KSTLTPNAKEFNPRSF)   PABPC1 PABC       0
3  KSTLNPNAKEFNPRSF N5S (KSTLSPNAKEFNPRSF)   PABPC1 PABC  0.0715
4  KSTLNPNAKEFNPRSF N5F (KSTLFPNAKEFNPRSF)   PABPC1 PABC       0

Entry under test: KSTLNPNAKEFNPRSF N5H (KSTLHPNAKEFNPRSF) . Its DMS-derived PSSM value, position N5 was 0

Entry under test: KSTLNPNAKEFNPRSF N5Q (KSTLQPNAKEFNPRSF) . Its DMS-derived PSSM value, position N5 was 0

Ref: paper PMC12102759
